Data provenance: paper PMC4357707

Biological target: T1, HEN1 wt (Arabidopsis thaliana, UniProt Q9C5Q8 1-942)
T1 sequence: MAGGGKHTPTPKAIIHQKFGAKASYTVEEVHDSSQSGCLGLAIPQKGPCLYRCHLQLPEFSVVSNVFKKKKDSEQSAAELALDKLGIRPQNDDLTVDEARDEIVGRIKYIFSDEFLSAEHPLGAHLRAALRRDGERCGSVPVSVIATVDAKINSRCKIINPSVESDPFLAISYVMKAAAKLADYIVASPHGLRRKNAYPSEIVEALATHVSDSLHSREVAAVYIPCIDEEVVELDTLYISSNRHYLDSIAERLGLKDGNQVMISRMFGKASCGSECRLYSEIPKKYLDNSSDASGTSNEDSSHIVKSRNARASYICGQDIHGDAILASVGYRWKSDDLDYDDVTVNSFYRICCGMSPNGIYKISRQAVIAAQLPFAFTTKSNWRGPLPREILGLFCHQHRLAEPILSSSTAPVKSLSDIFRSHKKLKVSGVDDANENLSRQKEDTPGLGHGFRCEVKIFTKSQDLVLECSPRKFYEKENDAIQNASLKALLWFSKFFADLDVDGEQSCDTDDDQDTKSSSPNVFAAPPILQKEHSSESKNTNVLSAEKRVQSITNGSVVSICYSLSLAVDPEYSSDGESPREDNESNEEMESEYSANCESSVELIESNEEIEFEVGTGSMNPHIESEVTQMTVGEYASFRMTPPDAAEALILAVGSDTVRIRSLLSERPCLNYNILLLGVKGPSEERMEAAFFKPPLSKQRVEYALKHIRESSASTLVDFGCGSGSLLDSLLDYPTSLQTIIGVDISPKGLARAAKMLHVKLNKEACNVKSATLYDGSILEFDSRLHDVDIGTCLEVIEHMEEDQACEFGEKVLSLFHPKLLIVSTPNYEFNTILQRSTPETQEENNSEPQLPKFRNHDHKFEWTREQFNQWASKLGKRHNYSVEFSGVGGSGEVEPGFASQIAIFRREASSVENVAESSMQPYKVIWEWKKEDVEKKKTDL
Assay: EMSA
endpoint label: Kd (nM)
Quick reminder: number only, in nM, skip the unit.

miR173/miR173* (dsRNA) RNA 1: UUCGCUUGCAGAGAGAAAUCAC RNA 2: GAUUCUCUGUGUAAGCGAAAG
0.43

Q: Which Kd is listed for miR173CH3/miR173*CH3 (dsRNA, 2'-O-methyl on 3'-terminal nucleotide of both strands) RNA 1: UUCGCUUGCAGAGAGAAAUCAC RNA 2: GAUUCUCUGUGUAAGCGAAAG ?
Result: 7.2
